- procedure summary: AUC in human at 6 mg/kg, iv by HPLC
- Type: ADME, organism-based
- Design: dose 6 mg/kg, route intravenous
- experimental parameters: plasma
reported endpoint: AUC (µg·h/mL)
# unit: µg·h/mL | format: bare number

Entry `CCCCCCCCCC(=O)N[C@@H](Cc1c[nH]c2ccccc12)C(=O)N[C@H](CC(N)=O)C(=O)N[C@@H](CC(=O)O)C(=O)N[C@@H]1C(=O)NCC(=O)N[C@@H](CCCN)C(=O)N[C@@H](CC(=O)O)C(=O)N[C@H](C)C(=O)N[C@@H](CC(=O)O)C(=O)NCC(=O)N[C@H](CO)C(=O)N[C@@H]([C@H](C)CC(=O)O)C(=O)N[C@@H](CC(=O)c2ccccc2N)C(=O)O[C@@H]1C` ; AUC = 632
